From: PubChem BioAssay (NCI)

What growth was measured for each of the following?
Test system: LOX IMVI melanoma
Assay: NCI-60 one-dose screen, 48 h (100 = growth as untreated, 0 = no growth, -100 = all killed)
Settings: 10 µM unless noted
Compounds without any hit were thinned out: in the full panel of roughly 83,000, 20% have a hit.
Numbers only, in %.

Recorded growth, per entry:
• CCCCCCCCN(CCCCCCCC)C(=O)CCl = -63.3
• CC(C)N(C(=S)SSC(=S)N(C(C)C)C(C)C)C(C)C = 97.1
• CCC1N=C(N)N=C(N)N1c1ccc(Cl)cc1 (stereo unspecified) = 68.6
• C=C(C)[C@@H]1CC[C@]2(C(=O)NS(=O)(=O)c3ccccc3)CC[C@]3(C)[C@H](CC[C@@H]4[C@@]5(C)CC[C@H](OC(=O)NS(=O)(=O)c6ccccc6)C(C)(C)[C@@H]5CC[C@]43C)[C@@H]12 = 4.7
• CC(C)[C@@]12C[C@@H](OC(=O)[C@H]3CO3)[C@@](C)(O1)[C@@H]1CC[C@@H](C)[C@H]1[C@@H]2OC(=O)/C=C/c1ccccc1 = 70.9
• O=C1C=CN2C(=O)CC=CC2[C@@H]1O (stereo partly specified) = 100

Batch lookup, growth per entry.
1. CCCCOC(=O)c1cc(O)c(O)c(O)c1
2. COc1cnc2c(c1)C(=O)c1c-2n(CCCNC(C)C)c(=O)c2cc(Cl)ccc12
3. ClC1=NC(Cl)C(Cl)=N/C1=N\c1ncn[nH]1 (stereo unspecified)

Output line:
1. 74.4
2. -88.1
3. -50.7

Provide each entry's growth from the list below.
1. Clc1ccc(C2=NN[C@H](c3cn(-c4ccccc4)nc3-c3ccccc3)C2)cc1
2. Oc1c(C(Nc2cccc3ccccc23)c2ccccc2)ccc2cccnc12 (stereo unspecified)

Output line:
[49.7, 15.3]

----------
System: MALME-3M melanoma
Test: NCI-60 one-dose screen, 48 h (100 = growth as untreated, 0 = no growth, -100 = all killed)
Details: 10 µM unless noted
This is part of a sample that, as a whole, favours compounds with a hit. Of some 83,000 tested, about 20% had one in any assay.
Could you please report measured growth for the items listed next?
One number for each entry, in %.

- CC(C)c1cccc(C#N)c1: 113
- CCCCCCCCCCCCCC: 113
- O=c1c2cc(Cl)ccc2oc2ccc(OCCCCCN3CCCCCC3)cc12: 114
- CC1(C)CC(=O)c2cc3c(N)c(C(=O)Nc4ccc(Cl)cc4)sc3nc2C1: 119
- Clc1ccc(-c2nc(-c3cccs3)no2)cc1: 111

Please report growth for every entry that follows.
1. C=C(c1ccc(C(=O)NCCCn2ccnc2)cc1)c1cc2c(cc1C)C(C)(C)CCC2(C)C
2. COC(=O)C(Br)(C(=O)OC)C(Br)C(Br)C(Br)c1ccccc1 (stereo unspecified)
3. CCOC(=O)c1ccc2c(c1)[n+](=O)c(C(=O)c1ccc3ccccc3c1)c(C(F)(F)F)n2[O-]
4. CN1C(=O)NC(Cc2c[nH]c3c(Cl)cccc23)C1=O (stereo unspecified)

Output line:
[-1.54, 47.5, -69.1, 141]

Would you mind giving growth for every compound in the list below?
1. COc1cc(C2CC(c3ccccc3)=NN2C=O)ccc1Oc1ccnc2cc(Cl)ccc12 (stereo unspecified)
2. CC1CCCN(CCCCOc2ccc(-c3ccc(C#N)cc3)cc2)C1 (stereo unspecified)
3. OCCN(CCO)c1ccc2ccccc2c1
4. COc1cc(/C=C/c2cc(/C=C/c3ccc(O)c(OC)c3)n(C(=O)Nc3ccc(F)c(Cl)c3)n2)ccc1O

Output line:
52.7
120
102
-16.8

Hey, quick one: what's growth for each of these?
1. CS(=O)(=O)c1ccc(C(=O)N2N=C(c3ccccc3)CC2c2ccc3c(c2)OCO3)cc1 (stereo unspecified)
2. COC(=O)c1ccc2c(c1)nc(-c1ccc(Cl)cc1)n2-c1cc(C(C)(C)C)[nH]n1
3. CCN1C(=O)N(CC)C2C1NC(=O)N2/N=C/C=C/c1ccccc1 (stereo unspecified)
4. COc1cc(C)c(Cl)cc1C1=NN(c2ccc(S(N)(=O)=O)cc2)C(/C=C/c2ccccc2)C1 (stereo unspecified)
5. C=C1C(=O)O[C@H]2[C@H]1CC/C(COC(=O)NCc1ccc(Cn3c(=O)sn(CCCl)c3=O)cc1)=C\CC[C@@]1(C)O[C@@H]21
6. O=C(Nc1ccncc1)C(=O)c1cn(S(=O)(=O)c2cccc(Cl)c2F)c2ccccc12
7. N#Cc1ccc(-c2ccc(-c3cccs3)o2)cc1F
8. COc1cc(-c2nc(-c3ccc(-c4nc5ccc(F)cc5[nH]4)cc3)no2)cc(OC)c1OC

Output line:
1. 104
2. 14.8
3. 50.6
4. 85.6
5. -28.3
6. 53.7
7. 86.6
8. 46
